# Test system: LOX IMVI melanoma
# assay.remarks: NCI tumour cell line growth inhibition, 48 h
parameter.measured: TGI (µM)
A number alone suffices; assume µM.

Record CC(=O)OC[C@]1(O)CC[C@@]23CC1C[C@@H]2CCC1C(C)(C)CCC[C@@]13C (some centres not stated) . Reported TGI: 23.3

Record Cc1c(-c2c(-c3ccc(F)o3)sc3ncnc(O[C@H](Cc4ccccc4OCc4ccnn4CC(F)(F)F)C(=O)O)c23)ccc(OCCN2CCN(C)CC2)c1Cl . Reported TGI: 6.8

Record COC(=O)C1(c2cc3ccccc3n2S(=O)(=O)c2ccccc2)CC2C=CC1NC2 (configuration not stated) . Reported TGI: 3.73

Record COc1ccc(/C=C\c2cc(OC)c(OC)c(OC)c2)cc1OC(=O)c1cccc(Cn2cc(CCOC(=O)[C@H](N)Cc3cn(C)c4ccccc34)nn2)c1 . Reported TGI: 14.2

Record C/C(=N/Nc1nc2ccccc2n1C)c1ccccn1 . Reported TGI: 11.4

Record Cc1nc(Nc2ccccc2Cl)sc1C(=O)CC(=O)C(=O)Nc1c(Cl)cccc1Cl . Reported TGI: 85.8

Record CCOC(=O)N1CCc2cc(OC)c(OC)c3c2c1cc1cc(OC)c(OC)cc13 . Reported TGI: 52.3

Record Cc1cc2nc3c4cc(N)ccc4n(CCN(C)C)c3nc2cc1C . Reported TGI: 3.27

Record C=CC(c1ccccc1)[C@@]1(OC(C)=O)C(=O)C(=O)OC1C1COC(C)(C)O1 (some centres not stated) . Reported TGI: 16.2

Record COC(=O)C1=C(C(=O)ON)C2C=CC1(C(Cc1ccccc1)Nc1ccccc1)O2 (configuration not stated) . Reported TGI: 3.24

Record CCOc1ccccc1NC(=O)CC1SC(=Nc2ccc([N+](=O)[O-])cc2)NC1=O (configuration not stated) . Reported TGI: 47.1

Record Cc1cc(S(N)(=O)=O)c(S/C(CC(C)C)=N\Nc2ccc([N+](=O)[O-])cc2)cc1Cl . Reported TGI: 29.2

Record C=C1C(=O)O[C@H]2[C@H]1CC/C(Cn1cc(-c3cc(C(F)(F)F)cc(C(F)(F)F)c3)nn1)=C\CC[C@@]1(C)O[C@@H]21 . Reported TGI: 0.298

Record O=C1c2ccccc2C(=O)[C@@]23O[C@@]12C1(Oc2cccc4cccc(c24)O1)[C@@H]1O[C@@H]1[C@@H]3O . Reported TGI: 16.5

Record O=C1C(=O)c2ccccc2C(O)=C1CC=C(Br)Br . Reported TGI: 27.6
